Value source: patent US11591355B2

Biological target: Human CD73 (Homo sapiens)
Construct: purchased R&D Systems; host or cells: CHO cells
Sequence (P21589 27-549): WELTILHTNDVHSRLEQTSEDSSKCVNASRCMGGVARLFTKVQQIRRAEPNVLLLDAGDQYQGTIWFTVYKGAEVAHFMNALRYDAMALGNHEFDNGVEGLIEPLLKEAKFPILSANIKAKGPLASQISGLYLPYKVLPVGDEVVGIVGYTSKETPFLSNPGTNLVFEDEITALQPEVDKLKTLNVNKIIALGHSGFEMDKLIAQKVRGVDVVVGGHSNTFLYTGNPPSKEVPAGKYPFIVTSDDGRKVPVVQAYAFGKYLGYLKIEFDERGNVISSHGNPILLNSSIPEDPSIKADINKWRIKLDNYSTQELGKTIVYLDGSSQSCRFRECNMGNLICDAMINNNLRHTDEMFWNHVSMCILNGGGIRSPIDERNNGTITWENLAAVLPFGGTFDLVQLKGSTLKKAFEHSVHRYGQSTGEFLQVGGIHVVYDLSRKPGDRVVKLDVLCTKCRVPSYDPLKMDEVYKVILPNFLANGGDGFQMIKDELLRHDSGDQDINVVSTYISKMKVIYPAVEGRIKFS
Experiment: CD73 Enzyme Assay
Format: biochemical
Settings: 0.25 nM hCD73, 25 μM AMP, kinetic read at 360 nm; read-out: CD73 Enzyme Assay IC50
pIC50: −log10 of the molar value.
# reported pIC50; entries follow

| Structure | Tested target | pIC50 |
| --- | --- | --- |
| CC(C)OP(=O)(O)COC[C@H]1O[C@@H](n2ccc3c(NC4CCCC4)nc(Cl)nc32)[C@H](O)[C@@H]1O | Human CD73 (Homo sapiens) | < 6.00 |
| C[C@@H](Nc1nc(Cl)nc2c1ccn2[C@@H]1O[C@H](CS(=O)(=O)CP(=O)(O)O)[C@@H](O)[C@H]1O)c1ccccc1F | Human CD73 (Homo sapiens) | > 8.00 |
| O=P(O)(O)CS(=O)(=O)C[C@H]1O[C@@H](n2ccc3c(N4CCCC4)nc(Cl)nc32)[C@H](O)[C@@H]1O | Human CD73 (Homo sapiens) | 7.00 to 8.00 |

pIC50 lookup needed for CC(C)[C@H](Nc1nc(Cl)nc2c1ccn2[C@@H]1O[C@H](COCP(=O)(O)O)[C@@H](O)[C@H]1O)c1ccccc1 , thanks. > 8.00

// query pIC50 value for entry CC(C)C(=O)OCOP(=O)(O)COC[C@H]1O[C@@H](n2ccc3c(NC4CCCC4)nc(Cl)nc32)[C@H](O)[C@@H]1O > 8.00

Entry C[C@@H](Nc1nc(C#N)nc2c1ccn2[C@@H]1O[C@H](COCP(=O)(O)O)[C@@H](O)[C@H]1O)c1ccccc1F : reported pIC50 = ? > 8.00
